Tested on: Crude diglycosidase
assay-overview: Examination of pH in the conversion into isoflavone aglycons by diglycosidase using soybean materials
Type: biochemical, Penicillium multicolor IAM7153
test-conditions: pH5.1; heat treatment of enzyme: yes; reaction time 6 h
Description: A substrate solution of 450 μL was prepared by suspending 50 mg of each soybean material (roasted soy flour (manufactured by Fuji Shokuryo K.K.), soymilk (manufactured by Gitoh Shokuhin K.K.), defatted soybean (manufactured by Fuji Seiyu K.K.), concentrated soybean protein (manufactured by Fuji Seiyu K.K.)), and adjusting the pH to 2 to 11 with hydrochloric acid or sodium hydroxide. […]
measurement-label: Decomposition efficiency of glycitin family in concentrated soybean protein (%)
Numbers only, in %.

compound-smiles | target-entity | quantity-unit | result-value
COc1cc2c(=O)c(-c3ccc(O)cc3)coc2cc1O | Crude diglycosidase | % | 11.5
COc1cc2c(=O)c(-c3ccc(O)cc3)coc2cc1O[C@@H]1O[C@H](CO)[C@@H](O)[C@H](O)[C@H]1O | Crude diglycosidase | % | 52.3
COc1cc2c(=O)c(-c3ccc(O)cc3)coc2cc1O[C@@H]1O[C@H](COC(C)=O)[C@@H](O)[C@H](O)[C@H]1O | Crude diglycosidase | % | 35.8

Query string: // query Decomposition efficiency of glycitin family in concentrated soybean protein value for entry "COc1cc2c(=O)c(-c3ccc(O)cc3)coc2cc1O[C@@H]1O[C@H](COC(=O)CC(=O)O)[C@@H](O)[C@H](O)[C@H]1O"
Result string: 0.4

---

Test system: Crude diglycosidase
assay-overview: Examination of substrate concentration in the conversion into isoflavone aglycons by diglycosidase using soybean materials;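 note: percent of the isoflavone family total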
Type: biochemical, Penicillium multicolor IAM7153
test-conditions: concentrated soybean protein, substrate concentration 30%, heat treatment of enzyme no, reaction time 0 h
measurement-label: Decomposition efficiency: ratio of each glycoside/aglycon within its isoflavone family (%)
Answers are plain numbers, in %.

compound-smiles | target-entity | result-value
O=c1c(-c2ccc(O)cc2)coc2cc(O[C@@H]3O[C@H](CO)[C@@H](O)[C@H](O)[C@H]3O)ccc12 | Crude diglycosidase | 49.2

Below: the item to evaluate.
Query string: Form entry - test system: Crude diglycosidase; read-out: Decomposition efficiency: ratio of each glycoside/aglycon within its isoflavone family; compound: "CC(=O)OC[C@H]1O[C@@H](Oc2cc(O)c3c(=O)c(-c4ccc(O)cc4)coc3c2)[C@H](O)[C@@H](O)[C@@H]1O"
Result string: 43.5

---

Tested on: Crude diglycosidase
assay-overview: Examination of temperature in the conversion into isoflavone aglycons by diglycosidase using soybean materials
Assay type: biochemical, Penicillium multicolor IAM7153
Parameters: concentration or dose not given beside the values
test-conditions: 55 °C; heat treatment of enzyme: no; 3 h
measurement-label: Decomposition efficiency of daidzin family in soymilk (%)
One number for each entry, in %.

compound-smiles | quantity-unit | result-value
O=C(O)CC(=O)OC[C@H]1O[C@@H](Oc2ccc3c(=O)c(-c4ccc(O)cc4)coc3c2)[C@H](O)[C@@H](O)[C@@H]1O | % | 41.1

Query string: // query Decomposition efficiency of daidzin family in soymilk value for entry "O=c1c(-c2ccc(O)cc2)coc2cc(O)ccc12"
Result string: 58.9

---

Would you kindly list Decomposition efficiency of daidzin family in soymilk for each of these compounds?
Tested on: Crude diglycosidase
assay-overview: Examination of temperature in the conversion into isoflavone aglycons by diglycosidase using soybean materials
Format: biochemical, Penicillium multicolor IAM7153
Design: concentration or dose not given beside the values
test-conditions: 55 °C; heat treatment of enzyme: no; 6 h
Give bare numbers, in %.

compound-smiles | result-value
O=C(O)CC(=O)OC[C@H]1O[C@@H](Oc2ccc3c(=O)c(-c4ccc(O)cc4)coc3c2)[C@H](O)[C@@H](O)[C@@H]1O | 31.1

Below: the item to evaluate.
Query string: Form entry - test system: Crude diglycosidase; read-out: Decomposition efficiency of daidzin family in soymilk; compound: "O=c1c(-c2ccc(O)cc2)coc2cc(O)ccc12"
Result string: 68.9

---

Test system: Crude diglycosidase
assay-overview: Examination of pH in the conversion into isoflavone aglycons by diglycosidase using soybean materials
Type: biochemical, Penicillium multicolor IAM7153
test-conditions: pH3.7; heat treatment of enzyme: yes; reaction time 6 h
Description: A substrate solution of 450 μL was prepared by suspending 50 mg of each soybean material (roasted soy flour (manufactured by Fuji Shokuryo K.K.), soymilk (manufactured by Gitoh Shokuhin K.K.), defatted soybean (manufactured by Fuji Seiyu K.K.), concentrated soybean protein (manufactured by Fuji Seiyu K.K.)), and adjusting the pH to 2 to 11 with hydrochloric acid or sodium hydroxide. […]
measurement-label: Decomposition efficiency of daidzin family in concentrated soybean protein

Use the examples below as a reference point.
compound-smiles | target-entity | result-value
CC(=O)OC[C@H]1O[C@@H](Oc2ccc3c(=O)c(-c4ccc(O)cc4)coc3c2)[C@H](O)[C@@H](O)[C@@H]1O | Crude diglycosidase | 44.4%
O=c1c(-c2ccc(O)cc2)coc2cc(O)ccc12 | Crude diglycosidase | 3.1%

Query string: Form entry - test system: Crude diglycosidase; read-out: Decomposition efficiency of daidzin family in concentrated soybean protein; compound: "O=c1c(-c2ccc(O)cc2)coc2cc(O[C@@H]3O[C@H](CO)[C@@H](O)[C@H](O)[C@H]3O)ccc12"
Result string: 52.5%

---

Would you kindly list aglycon for each of these compounds?
Test system: Diglycosidase derived from A. fumigatus
assay-overview: Reactivity toward various isoflavone glycosides (HPLC)
Format: biochemical, Aspergillus fumigatus
Set-up: unit not given here
test-conditions: Reaction time 1 h; 55 °C, pH 4.0
Answers are plain numbers.

compound-smiles | measurement-label | result-value
COc1cc2c(=O)c(-c3ccc(O)cc3)coc2cc1O[C@@H]1O[C@H](COC(=O)CC(=O)O)[C@@H](O)[C@H](O)[C@H]1O | aglycon | 0.4
CC(=O)OC[C@H]1O[C@@H](Oc2ccc3c(=O)c(-c4ccc(O)cc4)coc3c2)[C@H](O)[C@@H](O)[C@@H]1O | aglycon | 26.1
COc1cc2c(=O)c(-c3ccc(O)cc3)coc2cc1O[C@@H]1O[C@H](COC(C)=O)[C@@H](O)[C@H](O)[C@H]1O | aglycon | 6
O=C(O)CC(=O)OC[C@H]1O[C@@H](Oc2ccc3c(=O)c(-c4ccc(O)cc4)coc3c2)[C@H](O)[C@@H](O)[C@@H]1O | aglycon | 10
O=c1c(-c2ccc(O)cc2)coc2cc(O[C@@H]3O[C@H](CO)[C@@H](O)[C@H](O)[C@H]3O)ccc12 | aglycon | 7.1

Below: the item to evaluate.
Query string: // query aglycon value for entry "O=c1c(-c2ccc(O)cc2)coc2cc(O[C@@H]3O[C@H](CO)[C@@H](O)[C@H](O)[C@H]3O)cc(O)c12"
Result string: 0

---

Would you kindly list Decomposition efficiency of glycitin family in roasted soy flour for each of these molecules?
System: Crude diglycosidase
assay-overview: Examination of pH in the conversion into isoflavone aglycons by diglycosidase using soybean materials
Format: biochemical, Penicillium multicolor IAM7153
test-conditions: pH6.5, heat treatment of enzyme no, reaction time 3 h, 55° C.
Answers are plain numbers.

compound-smiles | target-entity | result-value
COc1cc2c(=O)c(-c3ccc(O)cc3)coc2cc1O | Crude diglycosidase | 80.3

Below: the item to evaluate.
Query string: // query Decomposition efficiency of glycitin family in roasted soy flour value for entry "COc1cc2c(=O)c(-c3ccc(O)cc3)coc2cc1O[C@@H]1O[C@H](COC(C)=O)[C@@H](O)[C@H](O)[C@H]1O"
Result string: 19.7

---

System: Crude diglycosidase
assay-overview: Examination of pH in the conversion into isoflavone aglycons by diglycosidase using soybean materials
Type: biochemical, Penicillium multicolor IAM7153
test-conditions: pH3.7; heat treatment of enzyme: no; reaction time 6 h
measurement-label: Decomposition efficiency of glycitin family in concentrated soybean protein (%)
Give bare numbers, in %.

Use the examples below as a reference point.
compound | result-value
COc1cc2c(=O)c(-c3ccc(O)cc3)coc2cc1O[C@@H]1O[C@H](COC(=O)CC(=O)O)[C@@H](O)[C@H](O)[C@H]1O [malonylglycitin, 6″-O-malonylglycitin] | 0.4
COc1cc2c(=O)c(-c3ccc(O)cc3)coc2cc1O[C@@H]1O[C@H](COC(C)=O)[C@@H](O)[C@H](O)[C@H]1O [acetylglycitin, 6″-O-acetylglycitin] | 22.1

Below: the item to evaluate.
Query string: Form entry - test system: Crude diglycosidase; read-out: Decomposition efficiency of glycitin family in concentrated soybean protein; compound: COc1cc2c(=O)c(-c3ccc(O)cc3)coc2cc1O [glycitein]
Result string: 77.5

---

Would you kindly list Decomposition efficiency of daidzin family in roasted soy flour for each of these compounds?
Tested on: Crude diglycosidase
assay-overview: Examination of pH in the conversion into isoflavone aglycons by diglycosidase using soybean materials
Assay type: biochemical, Penicillium multicolor IAM7153
test-conditions: pH6.5, heat treatment of enzyme no, reaction time 6 h, 55° C.
One number for each entry.

compound-smiles | result-value
O=c1c(-c2ccc(O)cc2)coc2cc(O)ccc12 | 65.6

Below: the item to evaluate.
Query string: Form entry - test system: Crude diglycosidase; read-out: Decomposition efficiency of daidzin family in roasted soy flour; compound: "CC(=O)OC[C@H]1O[C@@H](Oc2ccc3c(=O)c(-c4ccc(O)cc4)coc3c2)[C@H](O)[C@@H](O)[C@@H]1O"
Result string: 34.4
